Each recorded value in this set is attributed to ChEMBL document CHEMBL4376816.

test: Intrinsic clearance in human hepatocytes at 1 uM assessed as per million cells after 2 to 60 mins by LC-MS/MS analysis; type: ADME, cell-based, Hepatocyte; settings: read-out: CLH

{"columns": ["Compound string", "hepatocyte CLint at 1 µM"],
 "data": [
  ["COc1cc(N(CC(C)(C)F)c2cccc(C(F)(F)F)c2)cnc1C(=O)[C@H]1C[C@@H]1C(=O)O", "< 1.5 µL/min/1e6 cells"],
  ["COc1cc(N(CC(C)(C)F)c2cc(C(F)(F)F)ccc2F)cnc1C(=O)[C@H]1C[C@@H]1C(=O)O", "< 1 µL/min/1e6 cells"],
  ["COc1cc(N(CC2CC2)c2cc(Cl)c(F)cc2F)cnc1C(=O)[C@H]1C[C@@H]1C(=O)O", "< 1.5 µL/min/1e6 cells"],
  ["COc1cc(N(CC(C)(C)F)c2cc(Cl)c(F)cc2F)cnc1C(=O)[C@H]1C[C@@H]1C(=O)O", "< 1.7 µL/min/1e6 cells"]
]}
